biological target: Human immunodeficiency virus type 1 protease (Human immunodeficiency virus 1, UniProt Q72874); test: Inhibition of HIV protease cleavage of V-S-Q-N-(b-naphthylalanine)-P-I-V
Kindly supply the reported pIC50 values for the records listed here.
Friendly reminder that pIC50 comes from taking -log10 of the concentration in mol/L.

Record "CC(C)(C)OC(=O)N[C@@H](Cc1ccccc1)[C@H](O)CNC[C@@H](O)[C@H](Cc1ccccc1)NC(=O)OC(C)(C)CCCO" , field pIC50: 5.96

Record "CC(C)(C)OC(=O)N[C@@H](Cc1ccccc1)[C@H](O)CNC[C@@H](O)[C@H](Cc1ccccc1)NC(=O)OCCO" , field pIC50: 6.64

Record "CC(C)(C)OC(=O)N[C@@H](Cc1ccccc1)[C@H](O)CNC[C@@H](O)[C@H](Cc1ccccc1)NC(=O)OC(C)(C)CCO" , field pIC50: 6.70

Record "C[C@@H](O)C(C)(C)OC(=O)N[C@@H](Cc1ccccc1)[C@H](O)CNC[C@@H](O)[C@H](Cc1ccccc1)NC(=O)OC(C)(C)C" , field pIC50: 6.80

Record "C[C@H](O)C(C)(C)OC(=O)N[C@@H](Cc1ccccc1)[C@H](O)CNC[C@@H](O)[C@H](Cc1ccccc1)NC(=O)OC(C)(C)C" , field pIC50: 6.98

Record "COCC(C)(C)OC(=O)N[C@@H](Cc1ccccc1)[C@H](O)CNC[C@@H](O)[C@H](Cc1ccccc1)NC(=O)OC(C)(C)C" , field pIC50: 6.38

Record "CC(C)(C)OC(=O)N[C@@H](Cc1ccccc1)[C@H](O)CNC[C@@H](O)[C@H](Cc1ccccc1)NC(=O)OC(C)(C)CO" , field pIC50: 7.46

Record "CC(C)(C)OC(=O)N[C@@H](Cc1ccccc1)[C@H](O)CNC[C@@H](O)[C@H](Cc1ccccc1)NC(=O)OC(C)(CO)CO" , field pIC50: 6.70

Record "CC(C)(CO)OC(=O)N[C@@H](Cc1ccccc1)[C@H](O)CNC[C@@H](O)[C@H](Cc1ccccc1)NC(=O)OC(C)(C)CO" , field pIC50: 7.80

Record "CC(C)(C)OC(=O)N[C@@H](Cc1ccccc1)[C@H](O)CNC[C@@H](O)[C@H](Cc1ccccc1)NC(=O)OC(C)(C)CNC=O" , field pIC50: 5.82

Record "CC(C)(C)OC(=O)N[C@@H](Cc1ccccc1)[C@H](O)CNC[C@@H](O)[C@H](Cc1ccccc1)NC(=O)OC1(CO)CCC1" , field pIC50: 7.00

This collection of values is drawn from ChEMBL document CHEMBL1128839.
